The reported numbers originate from the supplement of paper PMC11061612.

Test system: U-266 (Plasma Cell Myeloma);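 note: after 72 h of two-drug dosing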
PROCEDURE_SUMMARY: Bliss excess, mean over the matrix (fraction); higher = more synergy
ASSAY_METRIC: Bliss excess

[[record]]
compound = "Cc1c2c(nn1C)CSCc1cc(n(C)n1)CSc1cc(c3ccccc3c1)OCCCc1c(C(=O)O)n(C)c3c-2c(Cl)ccc13 [AZD5991] + C[C@@H]1COCCN1C2=NC(=NC(=C2)C3(CC3)[S@](=N)(=O)C)C4=C5C=CNC5=NC=C4 [AZD6738] (first compound max 1 µM, 7x7, partner max 10 µM)"
assay_metric = "Bliss excess"
observed_result = 0.0624

[[record]]
compound = "CCN(CCO)CCCOc1ccc2c(Nc3cc(CC(=O)Nc4cccc(F)c4)[nH]n3)ncnc2c1 [AZD2811] + O=C(c1cc(Cc2n[nH]c(=O)c3ccccc23)ccc1F)N1CCN(C(=O)C2CC2)CC1 [Olaparib] (first compound max 1 µM, 7x7, partner max 10 µM)"
assay_metric = "Bliss excess"
observed_result = -0.0139

